Collected pIC50 values appear next to each entry.
# targetSystem: Glutamate [NMDA] receptor
# testDescription: Displacement of [3H]MK-801 from NMDA receptor (unknown origin)
# Assay type: protein-complex assay, Homo sapiens
pIC50 here is simply -log10 of the concentration when that concentration is written in mol/L.

Examples with answers:
[
  {
    "substanceSmiles": "O=C(O)c1cc2c3cc(Cl)c(Cl)cc3[nH]c(=O)n2n1",
    "pIC50": 6.05
  },
  {
    "substanceSmiles": "O=C(O)c1nc2c(O)nc3cc(Cl)c(-n4cccc4)cc3n2n1",
    "pIC50": 4.93
  }
]

Turning now to a further compound:
Ask | Which pIC50 is reported for this compound? O=Cc1ccn(-c2cc3c(cc2Cl)nc(O)c2nc(C(=O)O)nn23)c1
Reply | 4.37
